Recorded pIC50 values (Protein-glutamine gamma-glutamyltransferase E (Homo sapiens, UniProt Q08188)) are given below.
Scale explanation: pIC50 corresponds to minus log10 of a concentration expressed in moles per litre.

Guide cases for pIC50, answers given:
Query: Fill in reported pIC50 for this entry: C=CC(=O)NCC(=O)N1CCN(S(=O)(=O)c2cccc3c(N(C)C)cccc23)CC1
Response: 4.70

Query: Fill in reported pIC50 for this entry: C=CC(=O)NCC(=O)N1CCN(C(=O)C23CC4CC(CC(C4)C2)C3)CC1
Response: 4.96

Now for a further compound.
Query: Fill in reported pIC50 for this entry: O=C(CBr)NCC(=O)N1CCN(C(=O)C23CC4CC(CC(C4)C2)C3)CC1
Response: 4.15

Data provenance is BindingDB's records for doi:10.1016/j.chembiol.2015.08.013.
